target: rat TAAR1 (Rattus norvegicus, UniProt Q923Y9); construct: expressed in transfected cells; host or cells: HEK293 (ATCC # CRL-1573), stably transfected with pIRESneo2 expression plasmid; experiment: TAAR1 radioligand binding with [3H]-rac-2-(1,2,3,4-tetrahydro-1-naphthyl)-2-imidazoline, membranes of stably transfected HEK293 cells; conditions: second value of the cell, read-out: Ki (μM) mouse/rat: rat
Sequence (Q923Y9 whole entry): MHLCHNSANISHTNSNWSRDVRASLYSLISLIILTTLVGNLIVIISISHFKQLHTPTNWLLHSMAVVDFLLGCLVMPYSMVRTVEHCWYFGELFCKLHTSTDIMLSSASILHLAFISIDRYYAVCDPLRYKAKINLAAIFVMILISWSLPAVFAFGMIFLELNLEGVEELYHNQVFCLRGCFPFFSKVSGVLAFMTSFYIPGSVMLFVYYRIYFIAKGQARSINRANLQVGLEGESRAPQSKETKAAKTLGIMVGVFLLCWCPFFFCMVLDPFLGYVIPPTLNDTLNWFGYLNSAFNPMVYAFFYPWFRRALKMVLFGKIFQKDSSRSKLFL
measuredQuantity: log10 of Ki (log10 of the value in µM)
Note the log scale: values are log10 of Ki expressed in µM.

Reference set (5 entries):
- smilesCode: "Cc1nc(C(=O)Nc2ccc(CC[C@H]3COC(N)=N3)cc2)c(C(F)(F)F)o1"
  log10 of Ki: -2.21
- smilesCode: "Cc1cc(C(=O)Nc2ccc(CC[C@H]3COC(N)=N3)cc2)ccn1"
  log10 of Ki: -2.72
- smilesCode: "NC1=N[C@@H](CCc2ccc(NC(=O)c3ccc(F)nc3)cc2)CO1"
  log10 of Ki: -2.34
- smilesCode: "Cc1ccc(C(=O)Nc2ccc(CC[C@H]3COC(N)=N3)cc2)cn1"
  log10 of Ki: -2.72
- smilesCode: "NC1=N[C@@H](CCc2ccc(NC(=O)c3ccc(Cl)cc3Cl)cc2)CO1"
  log10 of Ki: -3.22

Challenge: Under rat TAAR1 (Rattus norvegicus, UniProt Q923Y9): log10 of Ki value of `COc1ccc(CC(=O)Nc2ccc(CC[C@H]3COC(N)=N3)cc2)cc1` ?
Response given: -2.72

Challenge: Under rat TAAR1 (Rattus norvegicus, UniProt Q923Y9): log10 of Ki value of `NC1=N[C@@H](CCc2ccc(NC(=O)c3ccc(F)nc3F)cc2)CO1` ?
Response given: -2.32

Challenge: Under rat TAAR1 (Rattus norvegicus, UniProt Q923Y9): log10 of Ki value of `C[C@H]1OC(N)=N[C@H]1CCc1ccc(NC(=O)c2ccc(Cl)cc2)cc1` ?
Response given: -2.89

Challenge: Under rat TAAR1 (Rattus norvegicus, UniProt Q923Y9): log10 of Ki value of `NC1=N[C@@H](CCc2ccc(NC(=O)C3CCC3)cc2)CO1` ?
Response given: -2.77

Challenge: Under rat TAAR1 (Rattus norvegicus, UniProt Q923Y9): log10 of Ki value of `NC1=N[C@@H](CCc2ccc(NC(=O)c3ccc(F)cn3)cc2)CO1` ?
Response given: -3.22

Challenge: Under rat TAAR1 (Rattus norvegicus, UniProt Q923Y9): log10 of Ki value of `COc1cncc(C(=O)Nc2ccc(CC[C@H]3COC(N)=N3)cc2)n1` ?
Response given: -2.27

----------
target: mouse TAAR1 (Mus musculus, UniProt Q923Y8); construct: expressed in transfected cells; host or cells: HEK293 (ATCC # CRL-1573), stably transfected with pIRESneo2 expression plasmid; assay: TAAR1 radioligand binding with [3H]-rac-2-(1,2,3,4-tetrahydro-1-naphthyl)-2-imidazoline, membranes of stably transfected HEK293 cells; conditions: first value of the cell, read-out: Ki (μM) mouse/rat: mouse
Sequence (Q923Y8 whole entry): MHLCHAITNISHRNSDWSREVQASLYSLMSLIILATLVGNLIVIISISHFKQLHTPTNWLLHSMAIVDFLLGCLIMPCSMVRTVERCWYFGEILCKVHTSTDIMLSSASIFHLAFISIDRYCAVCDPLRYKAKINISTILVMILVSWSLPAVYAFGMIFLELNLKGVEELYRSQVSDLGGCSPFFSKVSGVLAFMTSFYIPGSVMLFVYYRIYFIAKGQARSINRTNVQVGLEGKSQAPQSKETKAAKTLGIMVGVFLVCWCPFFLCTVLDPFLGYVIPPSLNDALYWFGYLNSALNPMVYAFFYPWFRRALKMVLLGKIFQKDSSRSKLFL
measuredQuantity: log10(Ki) (log10 of the value in µM)
Note the log scale: values are log10 of Ki expressed in µM.

Reference set (2 entries):
- compound: "NC1=N[C@@H](CCCc2ccc(NC(=O)c3ccc(Cl)cc3)cc2)CO1 [Example 8]"
  measuredQuantity: "log10(Ki)"
  val: -2.47
- compound: "NC1=N[C@@H](CCc2ccc(NC(=O)c3ccc(Cl)cc3F)cc2)CO1 [Example 136]"
  measuredQuantity: "log10(Ki)"
  val: -3.52

Challenge: Returns the measured log10(Ki) for the input compound. Input: C#Cc1ccc(C(=O)Nc2ccc(CC[C@H]3COC(N)=N3)cc2)cc1 [Example 62]
Response given: -3.52

Challenge: Returns the measured log10(Ki) for the input compound. Input: NC1=N[C@@H](CCc2ccc(NC(=O)Nc3ccc(Cl)nc3)cc2)CO1 [Example 38]
Response given: -2.77

Challenge: Returns the measured log10(Ki) for the input compound. Input: COc1cncc(C(=O)Nc2ccc(CC[C@H]3COC(N)=N3)cc2)n1 [Example 128]
Response given: -2.10

Challenge: Returns the measured log10(Ki) for the input compound. Input: Cc1ccc(C(=O)Nc2ccc(CC[C@H]3COC(N)=N3)cc2)nc1 [Example 171]
Response given: -3.10

Challenge: Returns the measured log10(Ki) for the input compound. Input: NC1=N[C@@H](CCc2ccc(NC(=O)Nc3ccc(F)cc3)cc2)CO1 [Example 94]
Response given: -3.52

Challenge: Returns the measured log10(Ki) for the input compound. Input: NC1=N[C@@H](CCc2ccc(NC(=O)c3ccc4cnccc4n3)cc2)CO1 [Example 104]
Response given: -2.47

----------
molecular target: rat TAAR1 (Rattus norvegicus); construct: expressed in transfected cells; host or cells: HEK293 (ATCC # CRL-1573), stably transfected with pIRESneo2 expression plasmid; test: TAAR1 radioligand binding with [3H]-rac-2-(1,2,3,4-tetrahydro-1-naphthyl)-2-imidazoline, membranes of stably transfected HEK293 cells; details: second value of the cell, read-out: Ki (μM) mouse/rat: rat
We label by threshold. Values of Ki strictly beneath 0.0009 µM are Satisfied. Values of 0.0009 µM and up are Not satisfied.

Illustrative cases are given below, each with its answer.
- smilesCode: "Cc1cc(C)nc(C(=O)Nc2ccc(CC[C@H]3COC(N)=N3)cc2)c1"
  qualitativeLabel: "Satisfied"
- smilesCode: "Cc1nc(C(=O)Nc2ccc(CC[C@H]3COC(N)=N3)cc2)c(C)o1"
  qualitativeLabel: "Not satisfied"
- smilesCode: "COc1ncc(C(=O)Nc2ccc(CC[C@H]3COC(N)=N3)cc2)cn1"
  qualitativeLabel: "Not satisfied"

Consider the additional molecule presented here.
Challenge: Just wondering, is Ki of `COc1ccc(OC(=O)Nc2ccc(CC[C@H]3COC(N)=N3)cc2)cc1` below 0.0009 µM?
Response given: Satisfied

----------
Entries and their measured Ki follow.
molecular target: mouse TAAR1 (Mus musculus); construct: expressed in transfected cells; host or cells: HEK293 (ATCC # CRL-1573), stably transfected with pIRESneo2 expression plasmid; assay: TAAR1 radioligand binding with [3H]-rac-2-(1,2,3,4-tetrahydro-1-naphthyl)-2-imidazoline, membranes of stably transfected HEK293 cells; conditions: first value of the cell, read-out: Ki (μM) mouse/rat: mouse
Numeric answer only, unit µM assumed.

- smilesCode: "N#Cc1ccc(C(=O)Nc2ccc(CC[C@H]3COC(N)=N3)cc2)cn1"
  val: 0.004
- smilesCode: "COc1ccc(OC(=O)Nc2ccc(CC[C@H]3COC(N)=N3)cc2)cc1"
  val: 0.0006

Continue with the compound presented below.
Challenge: Returns the measured Ki for the input compound. Input: `NC1=N[C@@H](CCc2ccc(N3CCN(c4ccc(F)cc4)C3=O)cc2)CO1`
Response given: 0.0094
